Data provenance is ChEMBL document CHEMBL5303304.

Catalogue of Growth Rate values
Test system: HEK-293T
MEASUREMENT_DESCRIPTION: Incucyte cell viability with HEK293T; note: unitless GR value; below 1 slowed growth and below 0 cell loss
Format: toxicity, cell-based
CONDITION_DETAILS: human, 12 h, 10 µM, compound concentration 10 uM, replicate number 2

{"columns": ["MOLECULE", "ASSAY_TARGET", "Growth Rate"],
 "data": [
  ["Cn1nc(C(=O)NCc2ccc(C(=O)O)cc2)cc1-c1ccc2[nH]ccc2c1", "HEK-293T", 0.63],
  ["C[C@@H]1COCCN1c1cc(=O)n2c(n1)N(Cc1cncc(Cl)c1)[C@H](C(F)(F)F)CC2", "HEK-293T", 0.44],
  ["CC(CNS(=O)(=O)C(C)C)c1ccc(-c2ccc(C#N)cc2)cc1 (centres undefined)", "HEK-293T", -0.01],
  ["NC(=O)c1ccc2[nH]c(-c3ccc(Oc4ccc(Cl)cc4)cc3)nc2c1", "HEK-293T", 0.93],
  ["Cc1nc(Nc2cnn(C3CCNCC3)c2)nc2c1N(C)C(=O)c1cc3ccccc3cc1N2C", "HEK-293T", 0.67],
  ["COc1ccc(C(F)(F)F)cc1NC(=O)Nc1ccc(Oc2cc(C)nc(N)n2)c2ccccc12", "HEK-293T", 0.92],
  ["CCCCCCCC/C=C\\CCCCCCCC(=O)NCCO [OLEOYLETHANOLAMIDE]", "HEK-293T", 0.83],
  ["O=C(O)c1ccnc(N2CC(O)(c3ccc(OCc4c(-c5c(Cl)cccc5Cl)noc4C4CC4)cc3Cl)C2)c1 [CILOFEXOR]", "HEK-293T", 0.68],
  ["COc1ccc(CCN(C)CCCC(C#N)(c2cc(OC)c(OC)c(OC)c2)C(C)C)cc1OC.Cl (centres undefined) [GALLOPAMIL HYDROCHLORIDE]", "HEK-293T", 0.97]
]}
